Target: epoxysqualene cyclase (Rattus norvegicus)
Construct: Rat hepatic microsomes were used as the source of the enzyme; from tissue; host or cells: liver microsomes of male Wistar rats
Experiment: inhibition of epoxysqualene cyclase in rat hepatic microsomes (lanosterol formed from (R,S)-2,3-oxydosqualene)
Format: biochemical, male Wistar rats
Conditions: 25.10^-6 moles per liter of tested product; 150 μM (R,S)-2,3-oxydosqualene, 60 minutes at 37° C., pH=7.4; read-out: Inhibition percentage (of the quantity of lanosterol formed)
ASSAY_METRIC: inhibition (%)

a: CN(C)CC(C)(C)C1CCN(CC=Cc2ccccc2)CC1
b: CC(C)=CCN1CCC(C(C)(C)CN(C)C)CC1
Enquiry: I need your help: which of the pair a , b has higher inhibition? Kindly give the label for the entry you pick.
Return: a

###

Biological target: epoxysqualene cyclase (Rattus norvegicus, UniProt P48450)
Construct: Rat hepatic microsomes were used as the source of the enzyme; from tissue; host or cells: liver microsomes of male Wistar rats
Sequence (P48450 1-733): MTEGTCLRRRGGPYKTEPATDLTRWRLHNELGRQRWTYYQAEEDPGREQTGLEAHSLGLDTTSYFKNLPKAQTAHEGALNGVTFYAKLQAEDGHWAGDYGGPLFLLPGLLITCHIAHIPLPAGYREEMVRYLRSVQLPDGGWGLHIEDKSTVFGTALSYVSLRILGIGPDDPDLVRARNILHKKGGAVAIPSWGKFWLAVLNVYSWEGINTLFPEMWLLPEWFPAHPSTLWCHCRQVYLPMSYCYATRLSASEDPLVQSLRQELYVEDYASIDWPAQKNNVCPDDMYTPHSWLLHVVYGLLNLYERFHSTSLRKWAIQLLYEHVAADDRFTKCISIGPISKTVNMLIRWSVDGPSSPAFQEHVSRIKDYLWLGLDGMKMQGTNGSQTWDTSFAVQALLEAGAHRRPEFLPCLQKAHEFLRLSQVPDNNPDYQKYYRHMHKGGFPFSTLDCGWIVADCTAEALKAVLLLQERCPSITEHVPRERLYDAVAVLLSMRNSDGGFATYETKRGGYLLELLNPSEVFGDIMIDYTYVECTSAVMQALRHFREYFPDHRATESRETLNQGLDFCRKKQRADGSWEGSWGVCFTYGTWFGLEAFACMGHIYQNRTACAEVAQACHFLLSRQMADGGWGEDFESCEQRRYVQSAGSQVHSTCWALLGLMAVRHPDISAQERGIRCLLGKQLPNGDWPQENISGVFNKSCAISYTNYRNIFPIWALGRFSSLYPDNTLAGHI
Experiment: inhibition of epoxysqualene cyclase in rat hepatic microsomes (lanosterol formed from (R,S)-2,3-oxydosqualene)
Assay type: biochemical, male Wistar rats
Settings: 25.10^-6 moles per liter of tested product; 150 μM (R,S)-2,3-oxydosqualene, 60 minutes at 37° C., pH=7.4; read-out: Inhibition percentage (of the quantity of lanosterol formed)
ASSAY_METRIC: inhibition (%)

CC(C)CCCNC(=O)CCCN1CCC(C(C)(C)CN(C)C)CC1 [Example 26]
100
CCCCCCCCCCCCN1CCC(C(C)(C)CN(C)C(C)=O)CC1 [Example 10]
66
CC(C)Cc1ccc(C(C)CN2CCC(C(C)(C)CN(C)C)CC2)cc1 (stereo not drawn) [Example 32]
95
CN(C)CC(C)(C)C1CCN(CCCCCCCCCCCn2ccnc2)CC1 [Example 21]
100
CC(Cc1ccc(C(C)C)cc1)CN1CCC(C(C)(C)CN(C)C)CC1 (stereo not drawn) [Example 18]
100

a: C=CCN1CCC(C(C)(C)CN(C)C)CC1 [Example 13]
b: CC(C)CCCC(=O)NCCCN1CCC(C(C)(C)CN(C)C)CC1 [Example 24]
Enquiry: Given the two records a and b , choose the one whose inhibition value is lower. Answer with the label corresponding to your selection.
Return: a
(a: 64%, b: 93%)

P: CCCCCCCCCCCCN1CCC(C(C)(C)CNC(C)=O)CC1 [Example 11]
Q: CN(C)CC(C)(C)C1CCN(CCCCCC(C)(C)C)CC1 [Example 17]
Enquiry: Select one: P or Q . Criterion: greater recorded inhibition. Answer by stating the label of the chosen item.
Return: Q
(Q: 100%, P: 58%)

###

Molecular target: epoxysqualene cyclase (Rattus norvegicus, UniProt P48450)
Construct: Rat hepatic microsomes were used as the source of the enzyme; from tissue; host or cells: liver microsomes of male Wistar rats
Test: inhibition of epoxysqualene cyclase in rat hepatic microsomes (lanosterol formed from (R,S)-2,3-oxydosqualene)
Format: biochemical, male Wistar rats
Conditions: 25.10^-6 moles per liter of tested product; 150 μM (R,S)-2,3-oxydosqualene, 60 minutes at 37° C., pH=7.4; read-out: Inhibition percentage (of the quantity of lanosterol formed)
ASSAY_METRIC: inhibition (%)

CN(C)CC(C)(C)C1CCN(C(=O)C(C)(C)Oc2ccc(Cl)cc2)CC1
95

a: CCCCCCCCCCCC(=O)N1CCC(C(C)(C)C[N+](C)(C)C)CC1
b: CCCCCCCCCCCCN1CCC(C(C)(C)CN(CC)CC)CC1
Enquiry: Between the two listed entries a and b , which has its inhibition at the higher number? Pick one and reply with its label.
Return: a

A: CCCCCCCCCCCCN1CCC(C(C)(C)CN)CC1
B: CCCCCCCCCCCCN1CCC(C(C)(C)CN2CCCCC2)CC1
Enquiry: Hi, I'm comparing A with B and wondering which one has the bigger number for inhibition. Any idea? # reply format: chosen label
Return: A
(A: 75%, B: 40%)

###

Biological target: epoxysqualene cyclase (Rattus norvegicus, UniProt P48450)
Construct: Rat hepatic microsomes were used as the source of the enzyme; from tissue; host or cells: liver microsomes of male Wistar rats
Assay: inhibition of epoxysqualene cyclase in rat hepatic microsomes (lanosterol formed from (R,S)-2,3-oxydosqualene)
Format: biochemical, male Wistar rats
Conditions: 25.10^-6 moles per liter of tested product; 150 μM (R,S)-2,3-oxydosqualene, 60 minutes at 37° C., pH=7.4; read-out: Inhibition percentage (of the quantity of lanosterol formed)
ASSAY_METRIC: inhibition (%)

CCCCCCCCCCC(=O)N1CCC(C(C)(C)CN(C)C)CC1 [Example 19]
100
CN(C)CC(C)(C)C1CCN(C(=O)CCCCCCCCCCn2ccnc2)CC1 [Example 20]
100
CCOC(=O)CCCN1CCC(C(C)(C)CN(C)C)CC1 [Example 25]
81

###

Molecular target: epoxysqualene cyclase (Rattus norvegicus)
Construct: Rat hepatic microsomes were used as the source of the enzyme; from tissue; host or cells: liver microsomes of male Wistar rats
Assay: inhibition of epoxysqualene cyclase in rat hepatic microsomes (lanosterol formed from (R,S)-2,3-oxydosqualene)
Format: biochemical, male Wistar rats
Conditions: 25.10^-6 moles per liter of tested product; 150 μM (R,S)-2,3-oxydosqualene, 60 minutes at 37° C., pH=7.4; read-out: Inhibition percentage (of the quantity of lanosterol formed)
ASSAY_METRIC: inhibition (%)

CN(C)CC(C)(C)C1CCN(C(=O)C=Cc2ccccc2)CC1 [Example 28]
87
CN(C)CC(C)(C)C1CCN(C/C=C/C#CC(C)(C)C)CC1 [Example 16]
100
CCCCCCCCCCCCN1CCC(C(C)(C)CNCC)CC1 [Example 9]
96
CN(C)CC(C)(C)C1CCN(CC(C)(C)Oc2ccc(Cl)cc2)CC1 [Example 30]
92
CCCCCCCCCCCCN1CCC(C(C)(C)CN(C)C)CC1 [Example 2]
97
